Source of measurements: patent US20220306695A1

target: Human C3 (human, UniProt P01024 23-1663); test: cell-based or functional assay
Sequence (P01024 23-1663 limits assumed): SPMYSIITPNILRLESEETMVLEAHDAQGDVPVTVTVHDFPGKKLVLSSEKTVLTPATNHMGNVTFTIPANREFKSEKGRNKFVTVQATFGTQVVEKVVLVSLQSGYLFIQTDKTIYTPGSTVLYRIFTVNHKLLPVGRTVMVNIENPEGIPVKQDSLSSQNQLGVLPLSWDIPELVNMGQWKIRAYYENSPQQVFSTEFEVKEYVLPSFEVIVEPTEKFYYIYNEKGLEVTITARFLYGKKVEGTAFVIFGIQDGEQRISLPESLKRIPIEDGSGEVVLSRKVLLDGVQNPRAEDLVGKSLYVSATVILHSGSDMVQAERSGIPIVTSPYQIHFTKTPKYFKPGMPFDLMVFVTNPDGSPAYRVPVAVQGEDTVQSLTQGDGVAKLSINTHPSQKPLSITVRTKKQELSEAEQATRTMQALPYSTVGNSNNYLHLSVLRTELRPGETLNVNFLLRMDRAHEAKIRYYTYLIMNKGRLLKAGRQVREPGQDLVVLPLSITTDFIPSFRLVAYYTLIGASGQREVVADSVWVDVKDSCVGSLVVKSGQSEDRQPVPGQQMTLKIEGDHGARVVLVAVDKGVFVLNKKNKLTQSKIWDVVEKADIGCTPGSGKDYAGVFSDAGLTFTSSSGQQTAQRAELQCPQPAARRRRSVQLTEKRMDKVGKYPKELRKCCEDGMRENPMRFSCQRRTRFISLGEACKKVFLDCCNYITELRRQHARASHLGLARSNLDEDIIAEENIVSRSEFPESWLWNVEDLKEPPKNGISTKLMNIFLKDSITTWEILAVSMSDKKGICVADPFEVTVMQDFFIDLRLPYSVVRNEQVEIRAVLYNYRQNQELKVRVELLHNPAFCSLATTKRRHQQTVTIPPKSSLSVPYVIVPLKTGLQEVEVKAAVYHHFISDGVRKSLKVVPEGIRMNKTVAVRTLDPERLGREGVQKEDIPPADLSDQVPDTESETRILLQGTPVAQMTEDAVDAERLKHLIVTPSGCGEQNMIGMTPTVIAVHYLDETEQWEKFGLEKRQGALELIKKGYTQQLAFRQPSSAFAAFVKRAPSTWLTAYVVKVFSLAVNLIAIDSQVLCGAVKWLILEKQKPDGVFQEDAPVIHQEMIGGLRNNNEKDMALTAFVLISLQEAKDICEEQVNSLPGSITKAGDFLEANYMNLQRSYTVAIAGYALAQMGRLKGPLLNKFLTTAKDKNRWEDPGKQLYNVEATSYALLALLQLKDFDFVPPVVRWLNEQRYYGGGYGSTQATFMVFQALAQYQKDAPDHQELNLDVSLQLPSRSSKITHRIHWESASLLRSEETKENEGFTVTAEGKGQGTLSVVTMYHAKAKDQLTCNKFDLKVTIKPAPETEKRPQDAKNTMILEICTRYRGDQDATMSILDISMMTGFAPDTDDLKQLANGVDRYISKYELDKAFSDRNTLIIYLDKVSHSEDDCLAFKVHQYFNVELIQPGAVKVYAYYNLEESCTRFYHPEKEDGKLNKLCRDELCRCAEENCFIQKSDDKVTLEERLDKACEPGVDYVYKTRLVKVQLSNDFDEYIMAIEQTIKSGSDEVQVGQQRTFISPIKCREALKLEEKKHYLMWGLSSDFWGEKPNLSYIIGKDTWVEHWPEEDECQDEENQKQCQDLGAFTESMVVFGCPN
Positions of bridges follow the written chain, without caps; N, C: chain ends. Non-standard residues stand in square brackets, D forms with d. Trp(1-Me) = Cn1cc(C[C@H](N)C(=O)O)c2ccccc21
// reported IC50[nM], inhibition of hemolysis for each item listed
Readout: IC50[nM], inhibition of hemolysis

• Ac-FCI[Trp(1-Me)]QDWGEHRCTGAES-NH2 (disulfide 2-12; SMILES CC[C@H](C)[C@@H]1NC(=O)[C@@H](NC(=O)[C@H](Cc2ccccc2)NC(C)=O)CSSC[C@@H](C(=O)N[C@H](C(=O)NCC(=O)N[C@@H](C)C(=O)N[C@@H](CCC(=O)O)C(=O)N[C@@H](CO)C(N)=O)[C@@H](C)O)NC(=O)[C@H](CCCNC(=N)N)NC(=O)[C@H](Cc2c[nH]cn2)NC(=O)[C@H](CCC(=O)O)NC(=O)CNC(=O)[C@H](Cc2c[nH]c3ccccc23)NC(=O)[C@H](CC(=O)O)NC(=O)[C@H](CCC(N)=O)NC(=O)[C@H](Cc2cn(C)c3ccccc23)NC1=O) [Compound 61] = < 100 nM
• Ac-ICIWQDWGKHRCT-NH2 (disulfide 2-12; SMILES CC[C@H](C)[C@H](NC(C)=O)C(=O)N[C@H]1CSSC[C@@H](C(=O)N[C@H](C(N)=O)[C@@H](C)O)NC(=O)[C@H](CCCNC(=N)N)NC(=O)[C@H](Cc2c[nH]cn2)NC(=O)[C@H](CCCCN)NC(=O)CNC(=O)[C@H](Cc2c[nH]c3ccccc23)NC(=O)[C@H](CC(=O)O)NC(=O)[C@H](CCC(N)=O)NC(=O)[C@H](Cc2c[nH]c3ccccc23)NC(=O)[C@H]([C@@H](C)CC)NC1=O) [Compound 5] = < 250 nM
• Ac-ICIWQDWGDHRCT-NH2 (disulfide 2-12; SMILES CC[C@H](C)[C@H](NC(C)=O)C(=O)N[C@H]1CSSC[C@@H](C(=O)N[C@H](C(N)=O)[C@@H](C)O)NC(=O)[C@H](CCCNC(=N)N)NC(=O)[C@H](Cc2c[nH]cn2)NC(=O)[C@H](CC(=O)O)NC(=O)CNC(=O)[C@H](Cc2c[nH]c3ccccc23)NC(=O)[C@H](CC(=O)O)NC(=O)[C@H](CCC(N)=O)NC(=O)[C@H](Cc2c[nH]c3ccccc23)NC(=O)[C@H]([C@@H](C)CC)NC1=O) [Compound 17] = < 100 nM
• Ac-ICI[Trp(1-Me)]QDWGEHRCT-NH2 (disulfide 2-12; SMILES CC[C@H](C)[C@H](NC(C)=O)C(=O)N[C@H]1CSSC[C@@H](C(=O)N[C@H](C(N)=O)[C@@H](C)O)NC(=O)[C@H](CCCNC(=N)N)NC(=O)[C@H](Cc2c[nH]cn2)NC(=O)[C@H](CCC(=O)O)NC(=O)CNC(=O)[C@H](Cc2c[nH]c3ccccc23)NC(=O)[C@H](CC(=O)O)NC(=O)[C@H](CCC(N)=O)NC(=O)[C@H](Cc2cn(C)c3ccccc23)NC(=O)[C@H]([C@@H](C)CC)NC1=O) [Compound 4] = < 100 nM
• SEFAIWQEWGEHRCGEGEXXK (not fully specified; N-acetyl; C-terminal amide; delta-cystathionine (Ctt2) thioether bridge A4-hCys14 (hCys written C); W6 is 1-Me-Trp; G15 is Sar; X19 and X20 are Peg3; K21 side chain bears [17-carboxy-heptadecanoyl][γGlu]G[γGlu]) [Compound 153] = < 100 nM
